molecular target: T1, anti-CD28 Fab (SEQ ID NOs: 202, 203); experiment: phage binding ELISA on captured biotinylated Fab;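 note: clonal phage supernatants added to wells preincubated with CD28 antigen or blocking buffer only, bound phage detected by ELISA with horseradish-conjugated anti-M13 antibody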
T1 construct: biotinylated and captured on neutravidin coated plates in the phage ELISA
T1 sequence (VH, as listed by the source, chain 1 of 2): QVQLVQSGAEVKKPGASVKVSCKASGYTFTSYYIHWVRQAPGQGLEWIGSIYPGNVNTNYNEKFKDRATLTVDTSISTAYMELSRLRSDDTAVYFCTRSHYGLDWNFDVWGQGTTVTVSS
T1 sequence (VL, as listed by the source, chain 2 of 2): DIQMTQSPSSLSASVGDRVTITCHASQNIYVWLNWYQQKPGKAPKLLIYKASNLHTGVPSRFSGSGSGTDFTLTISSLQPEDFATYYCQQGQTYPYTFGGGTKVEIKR
OUTCOME MEASURE: Anti-CD28 Fab (SEQ ID NOs: 202, 203) signal

1) SCSAGAAYYWPWCL [Phage-901] : 1.9
2) QCAAGASYPWPMCL [Phage-951] : 2.08
3) TCAAGANYPWPYCL [Phage-969] : 1.99
4) MCAAGATYPWPACL [Phage-914] : 2.3
